Source listed as PubChem BioAssay (NCATS).

- System: HEK293
- test-details: Cytotoxic Profiling of Annotated Libraries Using Quantitative High-Throughput Screening (AID 1296008); note: % is set by controls: 0 for no effect and ±100 for the full control effect; nearly all actives have a fitted effect of over 60% in size
- experimental-parameters: Five cell lines viability, CellTiter-Glo ATP luminescence, 48-72 h; stronger effect = lower value
Records with an inconclusive call do not appear.
reported-property: max response (%)
Please respond with the number in % and leave the unit unwritten.

Recorded max response, per entry:
compound=C[C@@H](NC(=O)c1cc(C(=O)N[C@@H](Cc2ccccc2)[C@H](O)CNC2CC2)cc(N(C)S(C)(=O)=O)c1)c1ccccc1 result=-6.18
compound="CC1OC(OC2C(OC3C(O[C@H]4CC[C@@]5(C)C(CC[C@]6(C)C5CC=C5C7CC(C)(C)CC(O)[C@]7(C)CC[C@]56C)C4(C)C)OC(C(=O)O)C(O)C3O)OCC(O)C2O)C(O)C(O)C1O (some centres not stated)" result=4.82
compound=C=C1C(=O)O[C@@H]2C[C@]3(C)[C@@H](CCC(C)=O)[C@@H]3C[C@H]12 result=-12.9
compound=O=C(O)c1cc(C(F)(F)F)ccc1N1CC[C@H](OCc2ccccn2)C1 result=-6.22
compound=N#Cc1cc(-c2n[nH]c(-c3ccncc3)n2)ccn1 result=-15.1
compound="C=C(C(=O)OC)[C@]12O[C@@](C)(CC[C@@]3(O)/C(=C\\C)C(=O)O[C@]3(C)C[C@@H]1OC(=O)C(CO)CN1CCCC1C(=O)O)CC2=O (some centres not stated)" result=-8.55

Then there is this compound:
Respond only with max response recorded for COc1cc([C@H]2OC[C@](O)(Cc3ccc(O[C@@H]4O[C@H](CO)[C@@H](O)[C@H](O)[C@H]4O)c(OC)c3)[C@@H]2CO)ccc1O
1.25

---

- test-details: Primary qHTS for inhibitors of nuclear receptor binding SET domain protein 2 (NSD2) in an isogenic RCH-ACV NSD2 p.E1099K mutant (9B) (AID 1645876); note: nearly all actives have a fitted effect of over 70% in size; for activity change, negative = viability loss: % is set by controls: 0 for no effect and ±100 for the full control effect
- experimental-parameters: RCH-ACV (leukaemia line) NSD2 E1099K (9B) viability, CellTiter-Glo, 72 h; series mostly up to 44.9 µM
Inconclusive results are not listed. Calls of active or inactive are those of the source. The call rests on the fitted dose curve; in most records, active means well fitted inhibition curve with a large enough effect; inconclusive means small, poorly fitted or top-dose-only effect; inactive means flat fitted curve, though single readings scatter.
reported-property: activity change, negative = viability loss

compound=N#Cc1cccc(-c2nc(-c3cccnc3)no2)c1 result=inactive
compound=O=C(O)Cc1cn([C@@H]2OC[C@@H](O[C@@H]3O[C@H](CO)[C@@H](O)[C@H](O)[C@H]3O)[C@H](O)[C@H]2O[C@@H]2O[C@H](CO)[C@@H](O)[C@H](O)[C@H]2O)c2ccccc12 result=inactive
compound="COc1cc2c(c(OC)c1O)C(c1ccc(O)cc1)C1C(=O)OC3C(COC(=O)C1=C2)OC(CO)(OC1OC(COC(=O)/C=C/c2ccc(OC4OC(C)C(O)C(O)C4O)cc2)C(O)C(O)C1O)C3O (stereo not drawn)" result="-11.1% [at 9.23 µM] (inactive)"

---

Quick reference: max response of the listed items.
- Test system: HEK293
- test-details: Cytotoxic Profiling of Annotated Libraries Using Quantitative High-Throughput Screening (AID 1296008); note: % is set by controls: 0 for no effect and ±100 for the full control effect; nearly all actives have a fitted effect of over 60% in size
- experimental-parameters: Five cell lines viability, CellTiter-Glo ATP luminescence, 48-72 h; stronger effect = lower value
Records with an inconclusive call do not appear.
Please respond with the number in % and leave the unit unwritten.

Recorded max response, per entry:
compound=CN1C(=O)N(c2cc(Cl)cc(Cl)c2)C(=O)[C@@]1(C)Cc1ccc(Br)cc1 result=-15.8
compound=C/C1=C\CC[C@]2(C)O[C@H]2C(=O)c2c(C)coc2C1 result=-1.35
compound="CC1(C)CC[C@]2(C(=O)O[C@@H]3O[C@H](CO)[C@@H](O)[C@H](O)[C@H]3O)[C@H](O)C[C@]3(C)C(=CCC4[C@@]5(C)CC[C@H](O[C@@H]6OC[C@@H](O)[C@H](O)[C@H]6O)[C@@](C)(C(=O)O)C5CC[C@]43C)[C@@H]2C1 (stereo partly specified)" result=-10.4
compound=CC(C)C[C@H](NC(=O)[C@@H]1O[C@H]1C(=O)O)C(=O)NCCCCN=C(N)N result=-19.1

Respond only with max response recorded for C=C1CC[C@H]2[C@@](C)(CCC(OC3OC(CO)C(O)C(O)C3O)[C@@]2(C)CO)C1C(=O)CC1=CCOC1=O (stereo partly specified)
-9.97

Respond only with max response recorded for COC(=O)C[C@H]1C(C)(C)[C@H](OC(=O)C(C)C)C2CC3=C4CC(=O)O[C@@H](c5ccoc5)[C@]4(C)CCC3[C@@]1(C)C2=O (stereo partly specified)
-10.8

Respond only with max response recorded for Cc1c(O)cc2c(c1O)COC1(O)CCCOC21 (stereo unspecified)
-1.54

Respond only with max response recorded for O=C(O)Cc1cn([C@@H]2O[C@H](CO)[C@@H](O)[C@H](O)[C@H]2O[C@@H]2O[C@H](CO)[C@@H](O)[C@H](O)[C@H]2O)c2ccccc12
2.13

Respond only with max response recorded for C/C=C/C=C/C(O)=C1/C(=O)[C@]2(C)C3/C(=C(O)/C=C/C=C/C)C(=O)C4(C)C1[C@]1(C)O[C@@]4(O)[C@@]3(C)O[C@@]12O
2.27

Respond only with max response recorded for CC(C)C1(O)C=C2C(=O)CC3C(C)(C(=O)O)CCCC3(C)C2CC1 (stereo unspecified)
0.541

Respond only with max response recorded for CC(C)=CCC[C@@](C)(O)[C@H]1CC[C@]2(C)[C@@H]1[C@H](O)CC1[C@@]3(C)CC[C@H](O[C@@H]4O[C@H](CO)[C@@H](O)[C@H](O)[C@H]4O[C@@H]4O[C@H](CO)[C@@H](O)[C@H](O)[C@H]4O)C(C)(C)[C@@H]3CC[C@]12C (stereo partly specified)
1.62

Respond only with max response recorded for CCCO[C@@H]1O[C@H](CO)[C@@H](O)[C@H](O)[C@H]1O[C@@H]1OC[C@@H](O)[C@H](O)[C@H]1O
-4.21

Respond only with max response recorded for CCOc1ncc(S(=O)(=O)N2CCN(CC)CC2)cc1-c1nc2c(CC)n(CCOC)nc2c(=O)[nH]1
-6.31

Respond only with max response recorded for N#Cc1ccc(C2CCCc3cncn32)cc1 (stereo unspecified)
-80.6

Respond only with max response recorded for COc1cc(O)cc2c1C(=O)OC(C)C2 (stereo unspecified)
4.69

Respond only with max response recorded for O=C1C(Cl)=C(N2CCOCC2)C(=O)N1c1ccc(Cl)c(Cl)c1
-3.24

Respond only with max response recorded for O=C(O)c1cccc(C(=O)CCC2OC(n3cnc4c(=O)[nH]cnc43)C(O)C2O)c1 (stereo unspecified)
-2.52

Respond only with max response recorded for CC(O)CCc1ccc(O[C@@H]2O[C@H](CO)[C@@H](O)[C@H](O)[C@H]2O)cc1 (stereo partly specified)
3.66

Respond only with max response recorded for CC(C)=CCC[C@](C)(O[C@@H]1O[C@H](CO)[C@@H](O)[C@H](O)[C@H]1O)[C@H]1CC[C@]2(C)[C@@H]1[C@H](O)CC1[C@@]3(C)CC[C@H](O)C(C)(C)C3[C@@H](O[C@@H]3O[C@H](CO)[C@@H](O)[C@H](O)[C@H]3O[C@@H]3O[C@@H](C)[C@H](O)[C@@H](O)[C@H]3O)C[C@]12C (stereo partly specified)
-1.21

Respond only with max response recorded for CC1(C)CC[C@]2(C(=O)O[C@@H]3O[C@H](CO)[C@@H](O)[C@H](O)[C@H]3O)CC[C@]3(C)C(=CCC4[C@@]5(C)CC[C@H](OC6OC(C(=O)O)C(OC7OC(CO)C(O)C(O)C7O)C(O)C6O)C(C)(C)C5CC[C@]43C)C2C1 (stereo partly specified)
3.09

Respond only with max response recorded for C=C1C(O)CCC2(C)CC3(OC)OC(=O)C(C)=C3CC12 (stereo unspecified)
0.468

Respond only with max response recorded for C[C@H]1CC(=O)C2=C(C1)C(O)C(O)[C@@]1(O)[C@H]2C(=O)c2cccc(O)c2[C@@H]1O (stereo partly specified)
3.36

Respond only with max response recorded for CC(C)C1CCC(C(=O)N[C@@H](Cc2ccccc2)C(=O)O)CC1 (stereo partly specified)
3.42

Respond only with max response recorded for O=C1OC(c2ccc(O)cc2)C(O)=C1Cc1ccccc1 (stereo unspecified)
0.741

---

- Test system: C33A
- test-details: Primary qHTS to identify gynecologic anti-cancer compounds using libraries of approved drugs and bioactive compounds (AID 1345084); note: % is set by controls: 0 for no effect and ±100 for the full control effect; nearly all actives have a fitted effect of over 55% in size
- experimental-parameters: Gynecologic cancer cell panel viability, ATPlite luminescence, 48 h; series mostly up to 57.5 µM
Records with an inconclusive call do not appear. Calls of active or inactive are those of the source. The call rests on the fitted dose curve; in most records, active means well fitted cell-killing curve with a large enough effect; inconclusive means small, poorly fitted or top-dose-only effect, or effect the other way; inactive means flat fitted curve, though single readings scatter.
reported-property: activity change, negative = cytotoxicity

Recorded activity change, negative = cytotoxicity, per entry:
compound="O=C(/C=C/c1ccc(O)cc1)O[C@H]1[C@H](OC2CCCCC2O)O[C@H](CO)[C@@H](O)[C@@H]1O (stereo partly drawn)" reported_property="activity change, negative = cytotoxicity" result=inactive
compound=CCc1cccc2c3c([nH]c12)[C@@](CC)(CC(=O)O)OCC3 reported_property="activity change, negative = cytotoxicity" result=inactive
compound="C[C@H]1[C@@H](O)[C@H](O)C2[C@]3(C)C([C@@H](O)[C@H]4OC(=O)[C@@H]1[C@@]24C)[C@](C)(O)C=C[C@H]3O[C@@H]1O[C@H](CO)[C@@H](O)[C@H](O)[C@H]1O (stereo partly drawn)" reported_property="activity change, negative = cytotoxicity" result=inactive
compound=C/C=C/C=C/C=C/C(=O)O[C@@H]1C=C(CO)[C@](O)(CO)[C@@]2(C)CCCC(C)(C)[C@H]12 reported_property="activity change, negative = cytotoxicity" result=inactive
compound="CC1CC(=O)[C@]2(O)C(C(=O)OCCc3ccc(O)cc3)=CO[C@@H](O[C@@H]3O[C@H](CO)[C@@H](O)[C@H](O)[C@H]3O)[C@H]12 (stereo partly drawn)" reported_property="activity change, negative = cytotoxicity" result=inactive
compound=FC(F)(F)c1nnc2c(Sc3ccccc3)nc3ccc(Cl)cc3n12 reported_property="activity change, negative = cytotoxicity" result=inactive

Respond only with activity change, negative = cytotoxicity recorded for O=C(CCc1ccccc1)c1c(O)c([C@@H]2O[C@H](CO)[C@@H](O)[C@H](O)[C@H]2O)c(O)c([C@@H]2O[C@H](CO)[C@@H](O)[C@H](O)[C@H]2O)c1O
inactive

Respond only with activity change, negative = cytotoxicity recorded for O=[N+]([O-])c1cc(Cl)ccc1S(=O)(=O)N1CCN(Cc2ccccc2)CC1
inactive
